Target: Bromodomain-containing protein 9 (Homo sapiens, UniProt Q9H8M2)
Sequence (Q9H8M2 whole entry): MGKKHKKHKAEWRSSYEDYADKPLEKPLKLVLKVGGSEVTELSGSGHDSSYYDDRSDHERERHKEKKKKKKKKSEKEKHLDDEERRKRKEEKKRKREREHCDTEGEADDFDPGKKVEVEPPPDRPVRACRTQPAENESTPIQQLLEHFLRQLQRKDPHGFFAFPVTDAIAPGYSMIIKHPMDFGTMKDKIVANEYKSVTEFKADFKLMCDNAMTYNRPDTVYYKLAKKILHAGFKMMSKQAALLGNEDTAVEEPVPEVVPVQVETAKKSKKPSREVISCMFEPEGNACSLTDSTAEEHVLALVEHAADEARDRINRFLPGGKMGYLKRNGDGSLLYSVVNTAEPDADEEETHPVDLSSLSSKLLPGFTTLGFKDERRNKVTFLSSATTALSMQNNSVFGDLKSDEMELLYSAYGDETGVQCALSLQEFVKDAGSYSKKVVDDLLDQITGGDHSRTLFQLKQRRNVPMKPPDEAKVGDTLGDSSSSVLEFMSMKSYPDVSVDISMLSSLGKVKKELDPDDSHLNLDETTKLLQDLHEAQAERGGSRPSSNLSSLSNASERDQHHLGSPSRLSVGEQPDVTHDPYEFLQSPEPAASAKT
reportedMetric: IC50

{"columns": ["substanceSmiles", "reportedMetric", "result"],
 "data": [
  ["CN1CCN(c2ccccc2CNc2cnn(C)c(=O)c2)CC1", "IC50", "> 50.1 µM"]
]}

Every entry's value here was drawn from ChEMBL document CHEMBL4613271.
